- System: Candida albicans
- assay: Antifungal activity against Candida albicans Y0109 after 24 hrs by micro-broth dilution method
- Format: functional
- run parameters: Y0109, 24 h
Entries and their MIC80 values follow.

{"molecule": "OC(CSC(=S)N1CCN(c2ccc(F)cc2)CC1)(Cn1cncn1)c1ccc(F)cc1F (racemic)", "MIC80": "≤ 0.125 µg/mL"}
{"molecule": "OC(CSC(=S)N1CCCCC1)(Cn1cncn1)c1ccc(F)cc1F (racemic)", "MIC80": "≤ 0.125 µg/mL"}
{"molecule": "OC(CSC(=S)N1CCN(c2cccc(C(F)(F)F)c2)CC1)(Cn1cncn1)c1ccc(F)cc1F (racemic)", "MIC80": "≤ 0.125 µg/mL"}
